assay method text: pKa value was measured
Assay type: physicochemical
property name: pKa

> print(dat)
                                   compound  property.name  observed
1                          Cc1noc(CN(C)C)n1            pKa       5.6
2  Cc1noc(C2CN(C)CCN2)n1 (stereo not drawn)            pKa       6.2
3  Nc1noc(C2CN3CCN2CC3)n1 (stereo not drawn)            pKa       6.3
4  CN1CCN(C)C(c2nc(N)no2)C1 (stereo not drawn)            pKa         6
5  CN1CCNC(c2nc(N)no2)C1 (stereo not drawn)            pKa       6.2
6  Cc1noc(C2CN3CCN2CC3)n1 (stereo not drawn)            pKa         6
7     Nc1noc(C2CNCCN2)n1 (stereo not drawn)            pKa       7.1
8     Cc1noc(C2CNCCN2)n1 (stereo not drawn)            pKa       7.1
